Can you tell me pEC50 for the items I'm about to list?
Target: Uracil nucleotide/cysteinyl leukotriene receptor (Homo sapiens)
Sequence (Q13304 whole entry): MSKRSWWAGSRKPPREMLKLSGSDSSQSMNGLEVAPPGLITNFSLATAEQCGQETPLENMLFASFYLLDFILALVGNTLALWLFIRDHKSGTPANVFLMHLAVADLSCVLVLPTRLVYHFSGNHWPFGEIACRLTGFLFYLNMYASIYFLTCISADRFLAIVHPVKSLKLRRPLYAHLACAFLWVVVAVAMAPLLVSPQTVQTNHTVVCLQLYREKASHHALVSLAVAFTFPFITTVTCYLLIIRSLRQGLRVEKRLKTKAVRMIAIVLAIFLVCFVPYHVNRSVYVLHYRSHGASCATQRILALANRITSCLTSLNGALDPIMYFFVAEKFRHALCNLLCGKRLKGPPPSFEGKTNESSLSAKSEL
Assay: Agonist activity at human GPR17 expressed in human 1321N1 cells assessed as induction of calcium mobilization after 1 hr by Oregon Green BAPTA-1/AM dye-based fluorescence assay
pEC50: −log10 of the molar value.

Q. Param item = CCCCCCCCOc1cc(Cl)cc2[nH]c(C(=O)O)c(CCC(=O)O)c12 ; retrieve measured pEC50.
A. < 5.00

Q. For O=C(O)/C=C/c1c(C(=O)O)[nH]c2cc(Cl)cc(Cl)c12 then?
A. < 4.52

Q. For O=C(O)CCc1c(C(=O)O)[nH]c2cc(Cl)c(Cl)cc12 then?
A. < 4.52

Q. For O=C(O)CCc1c(C(=O)O)[nH]c2ccc(F)cc12 then?
A. < 4.52

Q. For O=C(O)CCc1c(C(=O)O)[nH]c2ccccc12 then?
A. < 4.52

Q. For COc1ccc2c(CCC(=O)O)c(C(=O)O)[nH]c2c1 then?
A. < 4.00

Q. For CC(C)c1ccc2[nH]c(C(=O)O)c(CCC(=O)O)c2c1 then?
A. < 4.52

Q. For O=C(O)CCc1c(C(=O)O)[nH]c2cc(F)ccc12 then?
A. ≤ 5.00

Q. For O=C(O)CCc1c(C(=O)O)[nH]c2cccc(F)c12 then?
A. ≤ 5.00

Q. For O=C(O)CCc1c(C(=O)O)[nH]c2c1ccc1ccccc12 then?
A. < 4.52

Q. For O=C(O)CCc1c(C(=O)O)[nH]c2c(Cl)c(Cl)ccc12 then?
A. < 4.00

Q. For CCCCCCOc1cc(Cl)cc2[nH]c(C(=O)O)c(CCC(=O)O)c12 then?
A. < 5.00

The reported numbers originate from ChEMBL document CHEMBL4196130.
